This section presents molecules with their documented z-score of subpopulation abundance values.
# Tested on: Saccharomyces cerevisiae BY4741 SeMeCo community
# Procedure Text: z-score of subpopulation abundance vs DMSO median, subpopulation auxotrophic for H; higher = larger share of this subpopulation than in DMSO controls
# Condition: 10 µM; 24 h; SM minimal medium; subpopulation (auxotrophy): H
Measurement Label: z-score of subpopulation abundance

[
  {
    "Molecule": "C[N+]1(C)CCC(OC(=O)C(O)(c2ccccc2)C2CCCC2)C1 (configuration not stated) [Glycopyrrolate]",
    "Measurement Label": "z-score of subpopulation abundance",
    "Recorded Number": -0.58
  },
  {
    "Molecule": "O=C1N=C(O)NC1(c1ccccc1)c1ccccc1 [Phenytoin Sodium]",
    "Measurement Label": "z-score of subpopulation abundance",
    "Recorded Number": -0.03
  },
  {
    "Molecule": "CCOC(=O)CCC(=O)O[C@H]1[C@H](O[C@@H]2[C@@H](C)[C@H](O[C@H]3C[C@@](C)(OC)[C@@H](O)[C@H](C)O3)[C@@H](C)C(=O)O[C@H](CC)[C@@](C)(O)[C@H](O)[C@@H](C)C(=O)[C@H](C)C[C@@]2(C)O)O[C@H](C)C[C@@H]1N(C)C [Erythromycin Ethylsuccinate]",
    "Measurement Label": "z-score of subpopulation abundance",
    "Recorded Number": 1.99
  },
  {
    "Molecule": "CCCCCCCCCC(=O)NC1C(Oc2c3cc4cc2Oc2ccc(cc2Cl)C(OC2OC(CO)C(O)C(O)C2NC(C)=O)C2NC(=O)C(NC(=O)C4NC(=O)C4NC(=O)C(Cc5ccc(c(Cl)c5)O3)NC(=O)C(N)c3ccc(O)c(c3)Oc3cc(O)cc4c3)c3ccc(O)c(c3)-c3c(OC4OC(CO)C(O)C(O)C4O)cc(O)cc3C(C(=O)O)NC2=O)OC(CO)C(O)C1O (configuration not stated)",
    "Measurement Label": "z-score of subpopulation abundance",
    "Recorded Number": 0.94
  },
  {
    "Molecule": "CCCSc1ccc2[nH]c(NC(=O)OC)nc2c1",
    "Measurement Label": "z-score of subpopulation abundance",
    "Recorded Number": -0.51
  },
  {
    "Molecule": "Cc1cccc(Nc2ccccc2C(=O)O)c1C",
    "Measurement Label": "z-score of subpopulation abundance",
    "Recorded Number": -0.41
  },
  {
    "Molecule": "NC(=O)c1ncn([C@@H]2O[C@H](CO)[C@@H](O)[C@H]2O)n1",
    "Measurement Label": "z-score of subpopulation abundance",
    "Recorded Number": -0.52
  }
]

====

# System: Saccharomyces cerevisiae BY4741 SeMeCo community
# Procedure Text: z-score of subpopulation abundance vs DMSO median, subpopulation auxotrophic for H; higher = larger share of this subpopulation than in DMSO controls
# Condition: 10 µM; 24 h; SM minimal medium; subpopulation (auxotrophy): H
Structures can show the parent of a compound that is named as a salt.
Answer FALSE if z-score of subpopulation abundance is under 2, and TRUE if it is 2 or more.

[
  {
    "Compound": "CO[C@H]1C[C@@H]2CC[C@@H](C)[C@@](O)(O2)C(=O)C(=O)N2CCCC[C@H]2C(=O)O[C@H]([C@H](C)C[C@@H]2CC[C@H](n3cnnn3)[C@H](OC)C2)CC(=O)[C@H](C)/C=C(\\C)[C@@H](O)[C@@H](OC)C(=O)[C@H](C)C[C@H](C)/C=C/C=C/C=C/1C",
    "Target Entity": "Saccharomyces cerevisiae BY4741 SeMeCo community",
    "Class Assignment": "TRUE"
  },
  {
    "Compound": "CCC[S+]([O-])c1ccc2[nH]c(NC(=O)OC)nc2c1 (configuration not stated) [Albendazole Oxide]",
    "Target Entity": "Saccharomyces cerevisiae BY4741 SeMeCo community",
    "Class Assignment": "FALSE"
  },
  {
    "Compound": "CC(C(=O)O)c1ccc2c(c1)[nH]c1ccc(Cl)cc12 (configuration not stated)",
    "Target Entity": "Saccharomyces cerevisiae BY4741 SeMeCo community",
    "Class Assignment": "TRUE"
  },
  {
    "Compound": "O=C(O)c1cc(=O)c2c(OCC(O)COc3cccc4oc(C(=O)O)cc(=O)c34)cccc2o1 [Disodium Cromoglycate]",
    "Target Entity": "Saccharomyces cerevisiae BY4741 SeMeCo community",
    "Class Assignment": "FALSE"
  },
  {
    "Compound": "COc1cc(NS(=O)(=O)c2ccc(N)cc2)ncn1",
    "Target Entity": "Saccharomyces cerevisiae BY4741 SeMeCo community",
    "Class Assignment": "FALSE"
  },
  {
    "Compound": "CNCc1cc(-c2ccccc2F)n(S(=O)(=O)c2cccnc2)c1 [Vonoprazan Fumarate (TAK-438)]",
    "Target Entity": "Saccharomyces cerevisiae BY4741 SeMeCo community",
    "Class Assignment": "FALSE"
  },
  {
    "Compound": "CO/N=C1\\C[C@]2(C[C@@H]3C[C@@H](C/C=C(\\C)C[C@@H](C)/C=C/C=C4\\CO[C@@H]5[C@H](O)C(C)=C[C@@H](C(=O)O3)[C@]45O)O2)O[C@H](/C(C)=C/C(C)C)[C@H]1C",
    "Target Entity": "Saccharomyces cerevisiae BY4741 SeMeCo community",
    "Class Assignment": "FALSE"
  }
]

====

# Tested on: Saccharomyces cerevisiae BY4741 SeMeCo community
# Procedure Text: z-score of subpopulation abundance vs DMSO median, subpopulation auxotrophic for UM; higher = larger share of this subpopulation than in DMSO controls
# Condition: 10 µM; 24 h; SM minimal medium; subpopulation (auxotrophy): UM
Where a name gives a salt, the structure may show the parent alone.
Classes are defined on z-score of subpopulation abundance with ranges class A (below -0.2), class B (-0.2 to below 0.6), class C (0.6 or more)

[
  {
    "Compound": "Cc1nc2n(c(=O)c1CCN1CCC(c3noc4cc(F)ccc34)CC1)CCCC2",
    "Class Assignment": "class C"
  },
  {
    "Compound": "Nc1ccc(S(=O)(=O)Nc2nccs2)cc1",
    "Class Assignment": "class C"
  },
  {
    "Compound": "CO/N=C(\\C(=O)N[C@@H]1C(=O)N2C(C(=O)O)=C(CSc3nc(C)c(CC(=O)O)s3)CS[C@H]12)c1csc(N)n1 [Cefodizime Sodium]",
    "Class Assignment": "class B"
  },
  {
    "Compound": "COc1ccc([C@@H]2Sc3ccccc3N(CCN(C)C)C(=O)[C@@H]2OC(C)=O)cc1 [Diltiazem HCl]",
    "Class Assignment": "class A"
  },
  {
    "Compound": "Clc1ccc(COC(Cn2ccnc2)c2ccc(Cl)cc2Cl)cc1 (stereo not given) [Econazole nitrate]",
    "Class Assignment": "class C"
  },
  {
    "Compound": "CC(C)C(=O)Oc1ccc(CO)cc1[C@H](CCN(C(C)C)C(C)C)c1ccccc1 [Fesoterodine Fumarate]",
    "Class Assignment": "class A"
  },
  {
    "Compound": "CCCCCCCCCCCCCCCC[N+](C)(C)C [Cetrimonium Bromide (CTAB)]",
    "Class Assignment": "class C"
  },
  {
    "Compound": "N[C@@H]1CONC1=O",
    "Class Assignment": "class A"
  },
  {
    "Compound": "CCn1cc(C(=O)O)c(=O)c2cc(F)c(N3CCN(C)CC3)cc21 [Pefloxacin Mesylate]",
    "Class Assignment": "class B"
  },
  {
    "Compound": "CN1CCC[C@@H]1Cc1c[nH]c2ccc(CCS(=O)(=O)c3ccccc3)cc12",
    "Class Assignment": "class A"
  },
  {
    "Compound": "CC(=O)Oc1ccccc1C(=O)O",
    "Class Assignment": "class A"
  },
  {
    "Compound": "CC(=O)[C@H]1CC[C@H]2[C@@H]3CCC4=CC(=O)CC[C@]4(C)[C@H]3CC[C@]12C",
    "Class Assignment": "class B"
  },
  {
    "Compound": "CC1=C[C@H]2C(=O)O[C@H]3C[C@@H](C/C=C(\\C)C[C@@H](C)/C=C/C=C4\\CO[C@H](/C1=N\\O)[C@@]42O)O[C@@]1(CC[C@H](C)[C@@H](C)O1)C3.CC[C@H]1O[C@]2(CC[C@@H]1C)C[C@@H]1C[C@@H](C/C=C(\\C)C[C@@H](C)/C=C/C=C3\\CO[C@@H]4/C(=N\\O)C(C)=C[C@@H](C(=O)O1)[C@]34O)O2",
    "Class Assignment": "class A"
  },
  {
    "Compound": "CN1C2CCC1CC(OC(=O)C(O)c1ccccc1)C2 (stereo not given) [Homatropine Bromide]",
    "Class Assignment": "class C"
  },
  {
    "Compound": "CN(C)c1cc(NC(=O)CNC(C)(C)C)c(O)c2c1CC1CC3C(N(C)C)C(=O)C(C(N)=O)=C(O)C3(O)C(=O)C1=C2O (stereo not given)",
    "Class Assignment": "class A"
  },
  {
    "Compound": "CCCCCCCCN=c1ccn(CCCCCCCCCCn2ccc(=NCCCCCCCC)cc2)cc1 [Octenidine Dihydrochloride]",
    "Class Assignment": "class C"
  },
  {
    "Compound": "CN1CCN(CCCN2c3ccccc3Sc3ccc(C(F)(F)F)cc32)CC1 [Trifluoperazine 2HCl]",
    "Class Assignment": "class B"
  },
  {
    "Compound": "Nc1nc2[nH]cc(CCc3ccc(C(=O)N[C@@H](CCC(=O)O)C(=O)O)cc3)c2c(=O)[nH]1 [Pemetrexed]",
    "Class Assignment": "class A"
  },
  {
    "Compound": "c1ccc2[nH]c(-c3cscn3)nc2c1",
    "Class Assignment": "class A"
  }
]

src = the supplement of paper PMC8975748
